The reported numbers originate from ChEMBL document CHEMBL4020806.

# Tested on: Leishmania mexicana
# PROTOCOL: Antileishmanial activity against 5FU resistant Leishmania mexicana after 16 hrs by Alamar Blue assay
# Format: functional
pEC50: −log10 of the molar value.
MEASUREMENT_KIND: pEC50

[[record]]
smiles_entry = "Cc1cc(=O)n(C(=O)c2ccccc2)c(=O)n1[C@H]1C=C[C@@H](OC(=O)c2ccccc2)C1"
measurement_kind = "pEC50"
experimental_value = 4.65

[[record]]
smiles_entry = "Cc1cc(C)cc(Cn2c(=O)ccn([C@H]3C=C[C@@H](OC(=O)c4ccccc4)C3)c2=O)c1"
measurement_kind = "pEC50"
experimental_value = 4.41

[[record]]
smiles_entry = "O=c1[nH]c(=O)n([C@H]2C=C[C@@H](O)C2)cc1I"
measurement_kind = "pEC50"
experimental_value = 4.02

[[record]]
smiles_entry = "Cc1cc(=O)[nH]c(=O)n1[C@H]1C=C[C@@H](OC(=O)c2ccccc2)C1"
measurement_kind = "pEC50"
experimental_value = 4.02

[[record]]
smiles_entry = "O=C(O[C@@H]1C=C[C@H](n2ccc(=O)n(C(=O)c3cc(Cl)cc(Cl)c3)c2=O)C1)c1cc(Cl)cc(Cl)c1"
measurement_kind = "pEC50"
experimental_value = 4.04

[[record]]
smiles_entry = "Cc1cc(C)cc(C(=O)O[C@@H]2C=C[C@H](n3ccc(=O)n(Cc4ccccc4)c3=O)C2)c1"
measurement_kind = "pEC50"
experimental_value = 4.60

[[record]]
smiles_entry = "O=c1[nH]c(=O)n([C@H]2C=C[C@@H](O)C2)cc1Br"
measurement_kind = "pEC50"
experimental_value = 4.01

[[record]]
smiles_entry = "O=C(O[C@@H]1C=C[C@H](n2ccc(=O)[nH]c2=O)C1)c1cc(Cl)cc(Cl)c1"
measurement_kind = "pEC50"
experimental_value = 4.05

[[record]]
smiles_entry = "COc1ccc(Cn2c(=O)cc(C)n([C@H]3C=C[C@@H](OC(=O)c4ccccc4)C3)c2=O)cc1"
measurement_kind = "pEC50"
experimental_value = 4.36

[[record]]
smiles_entry = "Cc1cc(C)cc(C(=O)O[C@@H]2C=C[C@H](n3ccc(=O)n(C(=O)c4cc(C)cc(C)c4)c3=O)C2)c1"
measurement_kind = "pEC50"
experimental_value = 4.63

[[record]]
smiles_entry = "N#Cc1cccc(C(=O)O[C@@H]2C=C[C@H](n3ccc(=O)[nH]c3=O)C2)c1"
measurement_kind = "pEC50"
experimental_value = 4.02

[[record]]
smiles_entry = "CCCCCCCCCCCCC#Cc1cn([C@H]2C=C[C@@H](O)C2)c(=O)n([C@H]2C=C[C@@H](O)C2)c1=O"
measurement_kind = "pEC50"
experimental_value = 4.94

[[record]]
smiles_entry = "O=C(O[C@@H]1C=C[C@H](n2cc(Br)c(=O)[nH]c2=O)C1)c1ccccc1"
measurement_kind = "pEC50"
experimental_value = 4.04

[[record]]
smiles_entry = "N=C(N)c1ccc(OCCCCCOc2ccc(C(=N)N)cc2)cc1"
measurement_kind = "pEC50"
experimental_value = 5.79

[[record]]
smiles_entry = "O=c1[nH]c(=O)n([C@H]2C=C[C@@H](O)C2)cc1Nc1ccccc1"
measurement_kind = "pEC50"
experimental_value = 4.02

[[record]]
smiles_entry = "O=c1ccn([C@H]2C=C[C@@H](O)C2)c(=O)[nH]1"
measurement_kind = "pEC50"
experimental_value = 4.01

[[record]]
smiles_entry = "Cc1cc(=O)[nH]c(=O)n1[C@H]1C=C[C@@H](O)C1"
measurement_kind = "pEC50"
experimental_value = 3.99

[[record]]
smiles_entry = "O=C(O[C@@H]1C=C[C@H](n2ccc(=O)n(Cc3ccccc3)c2=O)C1)c1ccccc1"
measurement_kind = "pEC50"
experimental_value = 4.33

[[record]]
smiles_entry = "Cc1cc(C)cc(Cn2c(=O)cc(C)n([C@H]3C=C[C@@H](OC(=O)c4ccccc4)C3)c2=O)c1"
measurement_kind = "pEC50"
experimental_value = 4.55

[[record]]
smiles_entry = "O=c1[nH]cc(F)c(=O)[nH]1"
measurement_kind = "pEC50"
experimental_value = 2.61

[[record]]
smiles_entry = "Cc1ccc(Nc2cn([C@H]3C=C[C@@H](O)C3)c(=O)[nH]c2=O)cc1"
measurement_kind = "pEC50"
experimental_value = 4.01

[[record]]
smiles_entry = "N#Cc1cccc(C(=O)O[C@@H]2C=C[C@H](n3ccc(=O)n(Cc4ccccc4)c3=O)C2)c1"
measurement_kind = "pEC50"
experimental_value = 4.28

[[record]]
smiles_entry = "O=C(O[C@@H]1C=C[C@H](n2ccc(=O)[nH]c2=O)C1)c1ccccc1"
measurement_kind = "pEC50"
experimental_value = 4.02


###

# Test system: Leishmania mexicana
# PROTOCOL: Antileishmanial activity against wild type Leishmania mexicana after 16 hrs by Alamar Blue assay
# Format: functional
MEASUREMENT_KIND: EC50 (µM)

[[record]]
molecule = "Cc1cc(=O)n(C(=O)c2ccccc2)c(=O)n1[C@H]1C=C[C@@H](OC(=O)c2ccccc2)C1"
experimental_value = 26.1

[[record]]
molecule = "O=c1[nH]c(=O)n([C@H]2C=C[C@@H](O)C2)cc1Nc1ccccc1"
experimental_value = 94.1

[[record]]
molecule = "O=C(O[C@@H]1C=C[C@H](n2ccc(=O)[nH]c2=O)C1)c1ccccc1"
experimental_value = 94.8

[[record]]
molecule = "O=C(O[C@@H]1C=C[C@H](n2cc(Br)c(=O)[nH]c2=O)C1)c1ccccc1"
experimental_value = 90.4

[[record]]
molecule = "N=C(N)c1ccc(OCCCCCOc2ccc(C(=N)N)cc2)cc1 [PENTAMIDINE]"
experimental_value = 1.9

[[record]]
molecule = "Cc1cc(C)cc(C(=O)O[C@@H]2C=C[C@H](n3ccc(=O)n(C(=O)c4cc(C)cc(C)c4)c3=O)C2)c1"
experimental_value = 38.9

[[record]]
molecule = "Cc1cc(C)cc(Cn2c(=O)cc(C)n([C@H]3C=C[C@@H](OC(=O)c4ccccc4)C3)c2=O)c1"
experimental_value = 25.6

[[record]]
molecule = "Cc1cc(C)cc(Cn2c(=O)ccn([C@H]3C=C[C@@H](OC(=O)c4ccccc4)C3)c2=O)c1"
experimental_value = 41.3

[[record]]
molecule = "Cc1cc(C)cc(C(=O)O[C@@H]2C=C[C@H](n3ccc(=O)n(Cc4ccccc4)c3=O)C2)c1"
experimental_value = 31.8

